Biological target: Alpha-1A adrenergic receptor (Rattus norvegicus, UniProt P43140)
Sequence (P43140 whole entry): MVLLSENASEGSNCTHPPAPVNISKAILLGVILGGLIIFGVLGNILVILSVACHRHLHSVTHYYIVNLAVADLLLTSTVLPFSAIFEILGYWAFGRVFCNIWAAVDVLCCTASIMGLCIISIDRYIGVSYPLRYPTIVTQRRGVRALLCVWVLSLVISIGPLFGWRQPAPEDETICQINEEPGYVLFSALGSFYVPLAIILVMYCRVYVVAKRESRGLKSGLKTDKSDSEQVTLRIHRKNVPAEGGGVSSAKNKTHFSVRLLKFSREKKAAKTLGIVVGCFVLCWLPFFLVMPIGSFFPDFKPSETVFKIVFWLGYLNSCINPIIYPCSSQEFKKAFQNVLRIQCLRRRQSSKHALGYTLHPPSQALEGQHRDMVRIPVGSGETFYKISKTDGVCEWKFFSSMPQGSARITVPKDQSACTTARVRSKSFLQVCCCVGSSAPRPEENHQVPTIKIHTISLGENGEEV
measured_endpoint: Ki

Give recorded Ki with Alpha-1A adrenergic receptor (Rattus norvegicus, UniProt P43140) for the following compound: COc1ccc(OC)c(C(O)C(C)N)c1 (stereo unspecified)
> 10 µM
